system: TK-10 renal; assay: NCI-60 one-dose screen, 48 h (100 = growth as untreated, 0 = no growth, -100 = all killed); details: 10 µM unless noted
This is part of a sample that, as a whole, favours compounds with a hit. Of some 83,000 tested, about 20% had one in any assay. Active and inactive are the calls of the source. The calls were made as follows: active = growth percent below 10; inactive = the rest.
Property label: growth

[[record]]
compound = "COc1cc(C2=NN(c3ccc(S(N)(=O)=O)cc3)C(c3ccc(Cl)cc3)C2)cc(OC)c1OC (stereo not given)"
target_under_test = "TK-10 renal"
result = "45.9% (inactive)"


Query block: Form field: reported growth of "O=C1C(N2CCOCC2)=Cc2cccc3cccc1c23"
Result block: 98% (inactive)

Query block: # iterate: Cc1ccc(S(=O)(=O)N2CCc3ccc(O)c4c3C2Cc2ccc3c(c2-4)OCO3)cc1 (stereo not given)
Result block: 32.6% (inactive)

Query block: Note, next up: "COc1cc(CNCCCN2C(=O)c3ccc4c5c(ccc(c35)C2=O)C(=O)N(CCCNCc2cc(OC)c(OC)c(OC)c2)C4=O)cc(OC)c1OC"
Result block: -28.5% (active)

Query block: Check "COc1ncnc2c1ncn2C/C(Br)=C(\Br)CCl" too.
Result block: 51.3% (inactive)

* * *

tested on: SK-OV-3 ovarian; assay: NCI-60 one-dose screen, 48 h (100 = growth as untreated, 0 = no growth, -100 = all killed); details: 10 µM
This is part of a sample that, as a whole, favours compounds with a hit. Of some 83,000 tested, about 20% had one in any assay. Calls of active or inactive are those of the source. How the source made its calls: active means growth percent below 10; inactive means the rest.
Property label: growth

[[record]]
molecule = "COc1cccc(C2C3=C(COC3=O)N(CCO)c3cc4c(cc32)OCO4)c1 (stereo not given)"
target_under_test = "SK-OV-3 ovarian"
result = "20.8% (inactive)"

[[record]]
molecule = "Clc1ccccc1Nc1ccc2nnc(-c3ccncc3)n2n1"
target_under_test = "SK-OV-3 ovarian"
result = "121% (inactive)"

[[record]]
molecule = "O=C(Nc1ccc(F)cc1)c1ccc(C(=O)Nc2ccc(F)cc2)cc1"
target_under_test = "SK-OV-3 ovarian"
result = "103% (inactive)"

[[record]]
molecule = "Oc1ccc2ccccc2c1C1NN=C(c2ccccc2)S1 (stereo not given)"
target_under_test = "SK-OV-3 ovarian"
result = "15.4% (inactive)"

[[record]]
molecule = "COc1ccc2nc(-n3nc(C)cc3C)c(-n3nc(C)cc3C)nc2c1"
target_under_test = "SK-OV-3 ovarian"
result = "113% (inactive)"

[[record]]
molecule = "CC(C)(C)[Si](C)(C)OC1[C@@H](CNC(=O)NC(=O)CCl)O[C@@H](n2cnc3c(N)ncnc32)[C@H]1O[Si](C)(C)C(C)(C)C (stereo not given in full)"
target_under_test = "SK-OV-3 ovarian"
result = "92% (inactive)"

[[record]]
molecule = "COc1ccc(Nc2[nH]n(C3=Nc4ccccc4Sc4ccccc43)c(=O)c2C#N)cc1"
target_under_test = "SK-OV-3 ovarian"
result = "53.5% (inactive)"

[[record]]
molecule = "CCCCCCCCCCCCSC1=CC(=O)C=CC1=O"
target_under_test = "SK-OV-3 ovarian"
result = "82.3% (inactive)"


Query block: Returns the measured growth for the input molecule. Input: "COc1ccc(/C=C(\C#N)c2ccc(OC)cc2)cc1"
Result block: 74.9% (inactive)

Query block: How about "Cn1c(=O)c2c(-c3ccccc3F)n(-c3ccc4c(c3)OCO4)cc2n(C)c1=O" ?
Result block: 110% (inactive)

* * *

This section presents compounds with their documented growth values.
test system: UO-31 renal; test: NCI-60 one-dose screen, 48 h (100 = growth as untreated, 0 = no growth, -100 = all killed); settings: 10 µM unless noted
Compounds without any hit were thinned out: in the full panel of roughly 83,000, 20% have a hit.
Supply the numeric figure in %, leaving out any unit text.

Guide cases for growth, answers given:
[[record]]
compound = "COc1cc(/C=C/C(=O)C(=Cc2ccc(F)c(F)c2)C(=O)/C=C/c2ccc(O)c(OC)c2)ccc1O"
result = 53.2

[[record]]
compound = "Cn1c(=O)c2c(-c3ccccc3F)n(-c3ccc4c(c3)OCO4)cc2n(C)c1=O"
result = 82.4

[[record]]
compound = "OB(O)c1ccccc1"
result = 91.3

[[record]]
compound = "FC(F)(F)c1ccc2c(c1)n1cnnc1c1nncn21"
result = 87.6

[[record]]
compound = "COc1cccc(C2C3=C(COC3=O)N(CCO)c3cc4c(cc32)CCC4)c1 (stereo unspecified)"
result = 42.3


Query block: Can you share its growth? I mean this compound: "NC(=O)c1cccc(-n2ccc3cc(NC(=O)Nc4ccc(Cl)c(Cl)c4)ccc32)n1"
Result block: 95.5

Query block: Queued: "CNc1ccc(Br)cc1-c1n[nH]c(=O)[nH]c1=O"
Result block: 71.3

Query block: Quick one: "COc1cc(CNCCN2C(=O)c3ccc4c5c(ccc(c35)C2=O)C(=O)N(CCNCc2cc(OC)c(OC)c(OC)c2)C4=O)cc(OC)c1OC"
Result block: -70.2

Query block: Follow-up entry: "CCN(CC)CCCNc1ccc(C)c2sc3ccccc3c(=O)c12"
Result block: 44.7

Query block: Now the compound "Cc1nc2nc(C(F)(F)F)[nH]c2nc1C"
Result block: 101

Query block: Ok, now "COC(=O)c1c2c(c(C)[n+]([O-])c1C)C(=O)C=C(NCc1ccc(Cl)cc1)C2=O"
Result block: -9.07

* * *

tested on: M14 melanoma; test: NCI-60 one-dose screen, 48 h (100 = growth as untreated, 0 = no growth, -100 = all killed); settings: 10 µM unless noted
This is part of a sample that, as a whole, favours compounds with a hit. Of some 83,000 tested, about 20% had one in any assay.
Overview of reported growth across a group of molecules:
Quick reminder: number only, in %, skip the unit.

# count of solved cases: 3
[[record]]
smiles_record = "CC(=O)Nc1ccc(Sc2ccc([N+](=O)[O-])o2)cc1"
readout_units = "%"
result = 12.3

[[record]]
smiles_record = "CCCCCCCC/C=C\\CCCCCCCCOc1cccc(CC(=O)NCC[N+]2(C)CCCCC2)c1"
readout_units = "%"
result = 84.4

[[record]]
smiles_record = "Cc1cccc2c(=O)c3c(sc12)c(NCCNCCO)nc1ccccc13"
readout_units = "%"
result = -56.4


Query block: Consider the molecule shown here: "COC(=O)c1c2c(c(C)[n+]([O-])c1C)C(=O)C=C(NCc1cccc(OC)c1)C2=O" What is its recorded growth?
Result block: -83.4

Query block: What do you have for "Cc1nc(NC(=O)COc2cccc(/C=C3\COc4ccccc4C3=O)c2)sc1C" ?
Result block: -79.4

Query block: Please give the result for "COc1ccc(/C=C(\C#N)c2cc3ccccc3n2C)cc1" too.
Result block: 6.61

Query block: Continue with "O=C1/C(=C/c2ccc(Oc3ccccc3)cc2)N=C(c2ccccc2)N1CCc1cccs1"
Result block: 58.7

Query block: Another: "Cc1nc2cc(Nc3nc(N4CCOCC4)nc(N4CCN(C)CC4)n3)ccc2n1Cc1ccccc1"
Result block: 110

Query block: Field entry: "Oc1ccccc1/C=N/Nc1nc2ccccc2s1"
Result block: 56.6

Query block: Likewise for "O=C1/C(=C/c2ccccc2F)CNC/C1=C\c1ccccc1F" ?
Result block: -47.3

Query block: Then what about the molecule "Nc1nc(N)c(N=Nc2c(Br)cc(S(N)(=O)=O)cc2Br)c(N)n1" ?
Result block: 87.8

* * *

system: UACC-62 melanoma; test: NCI-60 one-dose screen, 48 h (100 = growth as untreated, 0 = no growth, -100 = all killed); details: 10 µM unless noted
Compounds without any hit were thinned out: in the full panel of roughly 83,000, 20% have a hit.
Property label: growth (%)
Answer format: numeric, % implied, no suffix.

Some compounds with known growth results, for comparison:
[[record]]
compound = "NS(=O)(=O)c1cc(Br)c2c(c1)S(=O)(=O)NCN2"
target_under_test = "UACC-62 melanoma"
property_label = "growth"
readout_units = "%"
result = 111

[[record]]
compound = "COc1cccc2c(=O)c3c(sc12)c(NCCN(C)C)nc1ccccc13"
target_under_test = "UACC-62 melanoma"
property_label = "growth"
readout_units = "%"
result = 57

[[record]]
compound = "Cc1nc2cc(Nc3nc(Cl)nc(Nc4ccc(F)cc4)n3)ccc2n1Cc1ccccc1"
target_under_test = "UACC-62 melanoma"
property_label = "growth"
readout_units = "%"
result = 82.4

[[record]]
compound = "C=CC(=O)N1CC2(CCC(n3nc(-c4ccc(Oc5ccccc5)cc4)c4c(N)ncnc43)CC2)C1"
target_under_test = "UACC-62 melanoma"
property_label = "growth"
readout_units = "%"
result = -90.7


Query block: Fill in: growth of CC(C)(C)[Si](C)(C)OC1[C@@H](COC(N)=O)O[C@@H](n2cnc3c(N)ncnc32)[C@H]1O[Si](C)(C)C(C)(C)C (stereo not given in full) is ___
Result block: 85.5

From: PubChem BioAssay (NCI)
